These measurements were taken from patent EP4631931A1.

- assay.notes: Stability in liver microsomes
- Type: in vitro ADME
- particulars: Mouse liver microsomes 0.5 mg/mL, 1 µM compound, NADPH, 37 °C
reported.metric: Clliver (mL/min/kg)
Please state the figure in mL/min/kg; there is no need to write the unit.

Example molecules with recorded Clliver:
• [2H]c1cncc(/C=C/C(=O)NCc2ccc(C(=O)Nc3ccc(F)cc3N)cc2)c1 [Compound 11] = 64.76
• [2H]c1ncccc1/C=C/C(=O)NCc1ccc(C(=O)Nc2ccc(F)cc2N)cc1 [Compound 9] = 50.99

Lookup: For the molecule [2H]c1cc(CNC(=O)/C=C/c2cccnc2)ccc1C(=O)Nc1ccc(F)cc1N [Compound 4] , what Clliver is on record?
Found: 65.74

Lookup: Next molecule up: [2H]c1cc(C(=O)Nc2ccc(F)cc2N)ccc1CNC(=O)/C=C/c1cccnc1 [Compound 5]
Found: 64.79

Lookup: Next molecule up: [2H]/C(=C\C(=O)NCc1ccc(C(=O)Nc2ccc(F)cc2N)cc1)c1cccnc1 [Compound 8]
Found: 68.41

Lookup: Next molecule up: Nc1cc(F)ccc1NC(=O)c1ccc(CNC(=O)/C=C/c2cccnc2)cc1 [Chidamide, reference compound]
Found: 64.04

Lookup: Next molecule up: [2H]c1ccc(/C=C/C(=O)NCc2ccc(C(=O)Nc3ccc(F)cc3N)cc2)cn1 [Compound 12]
Found: 49.05

---

- assay.notes: Pharmacokinetic experiment in rats
- Format: in vivo
- particulars: female, rat, plasma, Injection (1 mg/kg), intravenous
reported.metric: clearance (mL/min/kg)
Please state the figure in mL/min/kg; there is no need to write the unit.

Lookup: For the compound [2H]c1cc(C(=O)Nc2ccc(F)cc2N)ccc1CNC(=O)/C=C/c1cccnc1 , what clearance is on record?
Found: 12.9

---

- assay.notes: Pharmacokinetic experiment in rats
- Assay type: in vivo
- particulars: female, rat, plasma, Injection (1 mg/kg), intravenous
reported.metric: half-life (h)
Please state the figure in h; there is no need to write the unit.

Lookup: For the compound [2H]c1cc(C(=O)Nc2ccc(F)cc2N)ccc1CNC(=O)/C=C/c1cccnc1 [Compound 5] , what half-life is on record?
Found: 6.54

---

- assay.notes: Pharmacokinetic experiment in mice
- Format: in vivo, CD-1 female mice
- particulars: female, CD-1, mouse, plasma, Injection (1 mg/kg), intravenous
reported.metric: clearance (mL/min/kg)
Please state the figure in mL/min/kg; there is no need to write the unit.

Example compounds with recorded clearance:
* [2H]c1cc(C(=O)Nc2ccc(F)cc2N)ccc1CNC(=O)/C=C/c1cccnc1 | 36.8
* Nc1cc(F)ccc1NC(=O)c1ccc(CNC(=O)/C=C/c2cccnc2)cc1 [Chidamide, reference compound] | 33.9
* [2H]/C(=C\C(=O)NCc1ccc(C(=O)Nc2ccc(F)cc2N)cc1)c1cccnc1 | 36.9
* [2H]c1ccc(/C=C/C(=O)NCc2ccc(C(=O)Nc3ccc(F)cc3N)cc2)cn1 | 32.4
* [2H]c1cncc(/C=C/C(=O)NCc2ccc(C(=O)Nc3ccc(F)cc3N)cc2)c1 | 22.7

Lookup: For the compound [2H]c1cc(CNC(=O)/C=C/c2cccnc2)ccc1C(=O)Nc1ccc(F)cc1N , what clearance is on record?
Found: 27.7

Lookup: Next compound up: [2H]c1cc(F)cc(N)c1NC(=O)c1ccc(CNC(=O)/C=C/c2cccnc2)cc1
Found: 28.1

Lookup: Next compound up: [2H]c1cc(NC(=O)c2ccc(CNC(=O)/C=C/c3cccnc3)cc2)c(N)cc1F
Found: 41.5

Lookup: Next compound up: [2H]c1ncccc1/C=C/C(=O)NCc1ccc(C(=O)Nc2ccc(F)cc2N)cc1
Found: 16.6

Lookup: Next compound up: [2H]c1c(F)ccc(NC(=O)c2ccc(CNC(=O)/C=C/c3cccnc3)cc2)c1N
Found: 37.8
